- test-target: human mGlu4 receptor (Homo sapiens (Human))
- test: Ca2+ mobilization in vitro assay on recombinant human mGlu4 expressed in HEK293 cells (PAM)
- Format: cell-based
- measurement-setup: HEK293 cells, human mGlu4, in presence of EC20 of L-AP4; read-out: EC50 (nM) mGlu4PAM
In this section we review reported EC50 values for a set of compounds.
Your answer should be a plain number; it is taken to be in nM.

Past entries and their recorded results:
Cc1nccc(N2CCN3C(=O)N(c4c(F)cc(C#Cc5ccccc5)cc4F)C(=O)C[C@@]3(C)C2=O)n1 | 88
Cc1ccnc(N2CCN3C(=O)N(c4c(F)cc(C#Cc5ccccc5)cc4F)C(=O)CC3(C)C2=O)c1 (racemic) | 131
CC12CC(=O)N(c3c(F)cc(C#Cc4ccccc4)cc3F)C(=O)N1CCN(c1nc(C#N)cs1)C2=O (racemic) | 77

For this compound ( CC12CC(=O)N(c3c(F)cc(C#Cc4ccccc4)cc3F)C(=O)N1CCN(c1ccc(Cl)nc1)C2=O (racemic) ), measured EC50 is 116

For this compound ( "COCCCn1cc(N2CCN3C(=O)N(c4c(F)cc(C#Cc5ccccc5)cc4F)C(=O)C[C@@]3(C)C2=O)cn1" ), measured EC50 is 122

---

In this section we review reported Emax values for a set of molecules.
- test-target: human mGlu4 receptor (Homo sapiens (Human), UniProt Q14833)
- Sequence (Q14833 33-912): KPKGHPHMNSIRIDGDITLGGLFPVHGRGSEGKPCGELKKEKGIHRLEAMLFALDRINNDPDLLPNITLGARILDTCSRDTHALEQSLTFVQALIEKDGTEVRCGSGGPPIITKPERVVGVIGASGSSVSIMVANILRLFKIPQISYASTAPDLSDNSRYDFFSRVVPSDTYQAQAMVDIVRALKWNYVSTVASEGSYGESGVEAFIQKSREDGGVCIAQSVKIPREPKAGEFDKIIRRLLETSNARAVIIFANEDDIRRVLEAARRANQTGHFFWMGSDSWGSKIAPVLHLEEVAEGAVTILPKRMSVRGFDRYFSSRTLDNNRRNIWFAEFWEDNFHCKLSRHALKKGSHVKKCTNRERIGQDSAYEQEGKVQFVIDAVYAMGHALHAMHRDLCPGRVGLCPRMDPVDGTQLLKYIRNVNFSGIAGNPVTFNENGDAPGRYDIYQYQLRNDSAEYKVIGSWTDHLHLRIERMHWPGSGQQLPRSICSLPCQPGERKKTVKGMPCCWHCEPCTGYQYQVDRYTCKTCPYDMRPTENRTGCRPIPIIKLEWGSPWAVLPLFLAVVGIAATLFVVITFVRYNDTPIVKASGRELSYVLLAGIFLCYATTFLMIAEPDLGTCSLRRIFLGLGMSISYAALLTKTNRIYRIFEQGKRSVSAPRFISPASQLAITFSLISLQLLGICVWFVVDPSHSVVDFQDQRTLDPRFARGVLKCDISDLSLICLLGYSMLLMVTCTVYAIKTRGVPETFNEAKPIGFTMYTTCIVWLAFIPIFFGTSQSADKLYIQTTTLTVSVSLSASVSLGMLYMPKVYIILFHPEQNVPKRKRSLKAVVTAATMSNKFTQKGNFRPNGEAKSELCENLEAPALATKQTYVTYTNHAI
- test: Ca2+ mobilization in vitro assay on recombinant human mGlu4 expressed in HEK293 cells (PAM)
- Format: cell-based
- measurement-setup: HEK293; maximal response in % of maximal stimulatory effect of saturating L-AP4; read-out: Eff. (%)
Your answer should be a plain number; it is taken to be in %.

Past entries and their recorded results:
C[C@@]12CC(=O)N(c3c(F)cc(C#Cc4ccccc4F)cc3F)C(=O)N1CCN(c1cccnc1)C2=O | 85
O=C1C2CC(=O)N(c3c(F)cc(C#Cc4ccccc4)cc3F)C(=O)N2CCN1c1ccccn1 (racemic) | 116
C[C@@]12CC(=O)N(c3c(F)cc(C#Cc4ccccc4)cc3F)C(=O)N1CCN(c1cnc(OC3CC3)nc1)C2=O | 153

Next molecule, Emax to be filled in.
Let me check: CC12CC(=O)N(c3c(F)cc(C#Cc4ccccc4)cc3F)C(=O)N1CCN(Cc1ccccn1)C2=O (racemic) , system human mGlu4 receptor (Homo sapiens (Human), UniProt Q14833), measured Emax is 91
